System: HeLa
EXPERIMENT_SUMMARY: MTT cell viability (dose-dependent cytotoxicity) assay, 72 h
Assay type: cell-based, human
SETUP_CONDITIONS: Homo sapiens, HeLa, 72 h, read-out: EC50 (Mean ± S.E.M.) HeLa
VALUE_KIND: pEC50
Give only the number. pEC50 is defined as minus log10 of concentration in molar units.

Req: Provide measured pEC50 value, entry: `COc1cc(C=CC(=O)C=Cc2ccc(O)c(OC)c2)ccc1O`
Resp: 5.17

----------
System: CaSki
EXPERIMENT_SUMMARY: MTT cell viability (dose-dependent cytotoxicity) assay, 72 h
Assay type: cell-based, human
SETUP_CONDITIONS: EC50 (MRC9)/EC50 (CaSki) × 100
# key: entry, value: Selective Index CaSki
// no unit string in output, number only

COMPOUND: O=C(C=Cc1ccccc1O)C=Cc1ccccc1O
Selective Index CaSki: 447

Req: Provide measured Selective Index CaSki value, entry: `COc1cc(C=CC(=O)C=Cc2ccc(O)c(OC)c2)ccc1O`
Resp: 346

Req: Provide measured Selective Index CaSki value, entry: `O=C1C(=Cc2cccc(F)c2)CCCC1=Cc1cccc(F)c1`
Resp: 273

Req: Provide measured Selective Index CaSki value, entry: `COc1cc(/C=C/C(=O)CC(=O)/C=C/c2ccc(O)c(OC)c2)ccc1O`
Resp: 168

Req: Provide measured Selective Index CaSki value, entry: O=C(C=Cc1cccc(F)c1)C=Cc1cccc(F)c1 [MS40E]
Resp: 906

----------
# key: entry, value: EC50
Tested on: HeLa
EXPERIMENT_SUMMARY: MTT cell viability (dose-dependent cytotoxicity) assay, 72 h
Assay type: cell-based, human
SETUP_CONDITIONS: Homo sapiens, HeLa; MTT, 72 h; read-out: EC50 (Mean ± S.E.M.) HeLa
Write the figure, then the unit, nothing else.

Req: Provide measured EC50 value, entry: `O=C1C(=Cc2cccc(F)c2)CCCC1=Cc1cccc(F)c1`
Resp: 8.3 µM

----------
Tested on: MRC9
EXPERIMENT_SUMMARY: MTT cell viability (cytotoxicity) assay on non-cancerous lung fibroblasts, 72 h
Assay type: cell-based
SETUP_CONDITIONS: Homo sapiens, MRC9; MTT, 72 h, non-cancerous lung fibroblasts; read-out: EC50 (Mean ± S.E.M.) MRC9
VALUE_KIND: EC50 (µM)
// units = µM; emit number, no label

Some solved entries appear below for comparison.
COMPOUND: COc1cc(/C=C/C(=O)CC(=O)/C=C/c2ccc(O)c(OC)c2)ccc1O [Curcumin]
ASSAYED_TARGET: MRC9
EC50, µM: 26.6
//
COMPOUND: O=C(C=Cc1ccccc1O)C=Cc1ccccc1O [MS17]
ASSAYED_TARGET: MRC9
EC50, µM: 4.6
//
COMPOUND: O=C(C=Cc1cccc(F)c1)C=Cc1cccc(F)c1 [MS40E]
ASSAYED_TARGET: MRC9
EC50, µM: 31.7

Then there is this compound:
Req: Provide measured EC50 value, entry: O=C1C(=Cc2cccc(F)c2)CCCC1=Cc1cccc(F)c1 [MS49]
Resp: 16.4

----------
# key: entry, value: pEC50
Test system: HeLa
EXPERIMENT_SUMMARY: MTT cell viability (dose-dependent cytotoxicity) assay, 72 h
Type: cell-based, human
SETUP_CONDITIONS: Homo sapiens, HeLa; MTT, 72 h; read-out: EC50 (Mean ± S.E.M.) HeLa
Give only the number. pEC50 is defined as minus log10 of concentration in molar units.

MOLECULE: O=C(C=Cc1ccccc1O)C=Cc1ccccc1O
pEC50: 5.59

Req: Provide measured pEC50 value, entry: O=C(C=Cc1cccc(F)c1)C=Cc1cccc(F)c1 [MS40E]
Resp: 4.81

Req: Provide measured pEC50 value, entry: `COc1cc(/C=C/C(=O)CC(=O)/C=C/c2ccc(O)c(OC)c2)ccc1O`
Resp: 4.57
